Recorded Ki by entry
# experimentalTarget: UniProtKB P29473
# Sequence (P29473 whole entry): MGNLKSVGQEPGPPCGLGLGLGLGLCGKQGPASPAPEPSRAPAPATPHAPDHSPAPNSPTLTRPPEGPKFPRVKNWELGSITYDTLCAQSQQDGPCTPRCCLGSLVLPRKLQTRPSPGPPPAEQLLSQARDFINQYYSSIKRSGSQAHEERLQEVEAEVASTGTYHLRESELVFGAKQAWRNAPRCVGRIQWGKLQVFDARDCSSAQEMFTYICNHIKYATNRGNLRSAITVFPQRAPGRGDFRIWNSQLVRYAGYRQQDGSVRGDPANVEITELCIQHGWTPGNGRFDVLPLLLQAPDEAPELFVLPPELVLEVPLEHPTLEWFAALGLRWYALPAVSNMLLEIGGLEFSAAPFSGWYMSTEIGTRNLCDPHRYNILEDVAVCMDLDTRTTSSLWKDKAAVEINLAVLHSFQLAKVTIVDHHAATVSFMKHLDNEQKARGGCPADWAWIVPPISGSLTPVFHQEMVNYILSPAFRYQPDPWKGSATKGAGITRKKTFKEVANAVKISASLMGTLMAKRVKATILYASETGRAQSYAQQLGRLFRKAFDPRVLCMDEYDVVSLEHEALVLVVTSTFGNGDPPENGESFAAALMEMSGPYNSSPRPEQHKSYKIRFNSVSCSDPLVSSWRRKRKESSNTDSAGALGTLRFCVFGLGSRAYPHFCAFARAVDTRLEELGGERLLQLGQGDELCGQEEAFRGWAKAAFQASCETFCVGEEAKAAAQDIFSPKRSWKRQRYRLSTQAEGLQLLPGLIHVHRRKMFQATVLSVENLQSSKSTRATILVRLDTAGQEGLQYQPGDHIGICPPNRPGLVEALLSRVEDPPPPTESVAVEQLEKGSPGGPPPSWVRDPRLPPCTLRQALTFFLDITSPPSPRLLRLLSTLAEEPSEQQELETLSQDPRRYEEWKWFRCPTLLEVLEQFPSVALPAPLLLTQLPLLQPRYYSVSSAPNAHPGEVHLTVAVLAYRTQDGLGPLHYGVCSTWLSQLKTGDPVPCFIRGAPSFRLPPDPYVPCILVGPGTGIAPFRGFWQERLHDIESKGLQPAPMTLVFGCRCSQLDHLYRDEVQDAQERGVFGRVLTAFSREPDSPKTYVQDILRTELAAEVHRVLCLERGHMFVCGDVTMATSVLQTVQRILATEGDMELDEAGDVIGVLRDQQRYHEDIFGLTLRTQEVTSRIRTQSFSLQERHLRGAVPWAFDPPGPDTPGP
Write it as a number; the unit µM goes unstated.

Prompt: Can you share its Ki? I mean this compound: N=C(NCCC[C@H](N)CNCCc1ccccn1)N[N+](=O)[O-]
Completion: 123

Prompt: Can you share its Ki? I mean this compound: N=C(NCCC[C@H](N)CNCCc1ccncc1)N[N+](=O)[O-]
Completion: 193
